Test system: NCI-H322M lung
Test: NCI-60 one-dose screen, 48 h (100 = growth as untreated, 0 = no growth, -100 = all killed)
Conditions: 10 µM unless noted
The panel holds about 83,000 compounds, 20% with a hit somewhere; the sample as a whole holds those more often.
# growth listing for each entry below
Number in %, nothing else.

// worked examples, growth included
C1CNC2CCCC2C1 (stereo not drawn) = 104
N#[N+]c1cnc([O-])[nH]c1=O = 98.9
COC(=O)C1CC2c3ccccc3C1c1ccccc12 (stereo not drawn) = 98.8
Oc1ccc(Br)cc1CN1CCN(Cc2ccc(Cl)cc2)CC1 = 103
CC(C)(O)/C=C/C(=O)[C@](C)(O)[C@H]1[C@H](O)C[C@@]2(C)[C@@H]3CC=C4[C@@H](C=C(O)C(=O)C4(C)C)[C@]3(C)C(=O)C[C@]12C = -20.1

Now take the following molecule into account.
Asked: Form field: reported growth of O=C(N/N=C/c1ccc(N(CCCl)CCCl)cc1)c1cc(=O)[nH]c(=O)[nH]1
Given back: 92.9

---

System: HT29 colon
Assay: NCI-60 one-dose screen, 48 h
Conditions: 10 µM unless noted
About 83,000 compounds went through this panel and 20% of them were active in at least one assay; those are over-represented in the sample as a whole. Activity calls are given as the source filed them. How the source made its calls: active means growth percent below 10; inactive means the rest.
Field 'call' accepts YES (active), NO (inactive)

For orientation, consider the following solved cases.
CC(C)Nc1ccc(Nc2ccccc2)cc1 = YES
CCC[CH2][Sn]([CH2]CCC)([CH2]CCC)[O]C(=O)c1ccc(Cl)cc1Cl = YES
O=C1NC2(CCNCC2)Nc2ccccc21 = NO
S=P(Nc1ccccc1)(Nc1ccccc1)c1ccccc1 = NO
Cc1cccc(N(C)c2cccc3c2C(=O)[Se]C3)c1C = YES
CCOP(=O)(OCC)Oc1ccc(Sc2ccc(OP(=O)(OCC)OCC)cc2)cc1 = NO
CCN(CC)CCOc1c(C(C)C)cccc1C(C)C = NO
Cc1ccc(C[As+](c2ccccc2)(c2ccccc2)c2ccccc2)cc1 = YES

Asked: Entry O=C1C=CC(=O)C2C1C1(Cl)C(Cl)=C(Cl)C2(Cl)C1(Cl)Cl (configuration not stated) : call = ?
Given back: NO

Asked: Entry CNC(C)Cc1ccccc1 (configuration not stated) (tested in a mixture with another compound) : call = ?
Given back: NO

Asked: Entry C[C@]12CC[C@@H]3C4=C(CC[C@H]3[C@@H]1CC[C@@H]2O)CC(=O)CC4 : call = ?
Given back: NO

Asked: Entry CN=C(NN)NN : call = ?
Given back: NO

---

Test system: HL-60(TB) leukemia
Experiment: NCI-60 one-dose screen, 48 h (100 = growth as untreated, 0 = no growth, -100 = all killed)
Conditions: 10 µM unless noted
Protocol: Growth inhibition of the HL-60(TB) human tumor cell line is measured as a screen for anti-cancer activity. Cells are grown in 96 well plates and exposed to the test compound for 48 hours. Compounds are tested at a single concentration, which is 10^-5 M for most compounds. The reported endpoint is percent growth (GI% or GIPRCNT), where numbers from 0 - 100% represent growth inhibition, and numbers from -100% - 0 represent cell death. For example, a value of 40 represents 60% growth inhibition. […]
The panel holds about 83,000 compounds, 20% with a hit somewhere; the sample as a whole holds those more often.
Test Readout: growth (%)
Number in %, nothing else.

// worked examples, growth included
O=C(N=Nc1c(O)[nH]c2ccccc12)c1cc(-c2ccccc2)on1 = 97.5
CCCOC(=O)N[C@H]1CCc2c(Cl)c(OC)c(OC)c(OC)c2-c2ccc(SC)c(=O)cc21 = -36
CCCCC[C@H]1C/C=C2/C(=O)C(Cl)=C[C@@H]2C/C=C\CCCC(=O)O1 = -9.03
Cc1cc(NS(=O)(=O)c2ccc(NC(=O)COc3ccc(-c4cc5ccccc5[nH]4)cc3)cc2)no1 = 7.86

Asked: Form field: reported growth of c1ccc(-c2n(Cc3ccc4ccccc4n3)c3ccccc3[n+]2Cc2ccc3ccccc3n2)cc1
Given back: -54

Asked: Form field: reported growth of CC1=C(SCCC(=O)OC(C[Se]C2=C(C)C(=O)c3ccccc3C2=O)C(=O)NC(C)(C)C)C(=O)c2ccccc2C1=O (configuration not stated)
Given back: 8.81

Asked: Form field: reported growth of CCc1nc2ccccc2[nH]1
Given back: 105

Asked: Form field: reported growth of C[C@]12CC[C@H](OC3OC(O)C(O)C(O)C3O)C=C1CCC1C2CC[C@]2(C)[C@@H](c3ccc(=O)oc3)CC[C@]12O (some centres not stated)
Given back: -57.3

Asked: Form field: reported growth of C=CCC(OC(C)=O)c1ccc(OC)c(OC)c1 (configuration not stated)
Given back: 116

Asked: Form field: reported growth of CC(C)CCC1(CCO)C(=O)NC(=S)NC1=O
Given back: 98.1

Asked: Form field: reported growth of CCOP(=O)(OCC)C1CP(=O)(c2ccccc2)CC(C)=C1Cl (configuration not stated)
Given back: 92.1

Asked: Form field: reported growth of Nc1nc(N)c2c(n1)NC1(C=C(O)c3ccccc31)C1=C(N2)c2ccccc2C1=O (configuration not stated)
Given back: 71

Asked: Form field: reported growth of CS(=O)(=O)Nc1ccc(OCc2nnc(-c3ccc(Cl)cc3)o2)c(F)c1
Given back: 115

Asked: Form field: reported growth of O=[N+]([O-])c1ccc(-n2[nH]nnc2=S)cc1
Given back: 105

---

Test system: HL-60(TB) leukemia
Assay: NCI-60 one-dose screen, 48 h
Conditions: 10 µM unless noted
Compounds without any hit were thinned out: in the full panel of roughly 83,000, 20% have a hit. Activity calls are given as the source filed them. Rule for the calls: active = growth percent below 10; inactive = the rest.
Field 'call' accepts true for active, false for inactive

For orientation, consider the following solved cases.
Cc1nn(-c2ccccc2)c2nc(Cl)c(C=O)c(-c3ccccc3)c12 = false
OC1(c2ccccc2F)c2ccccc2C2=NCCN21 (configuration not stated) = false
O=C(/C=C/c1nnc2n(Cc3ccccc3)c(=O)c3c4c(sc3n12)CCCC4)c1ccccc1 = false
c1cc(-c2nnc(SSc3ncnc4nc[nH]c34)o2)ccn1 = false
CC(C)(C)CC(C)(C)Nc1c(-c2c(O)c3ccccc3oc2=O)nc2c(Cl)cc(C(F)(F)F)cn12 = false
COc1cc(-c2nc3occn3c2-c2ccnc(NCCCNS(=O)(=O)c3ccccc3)n2)ccc1F = false
O=C(/C=C/c1cccs1)Nc1ncc(Cc2ccc(Cl)c(Cl)c2)s1 = false
Cc1ccc(C(O)C2CC2)cc1 (configuration not stated) = false
O=C(NNc1nc(Cl)nc(N2CCN(C(c3ccccc3)c3ccccc3)CC2)n1)c1ccccc1 = true
N#Cc1c(NCc2ccccc2I)sc2c1CCCCC2 = false

Asked: Entry COc1ccc(-c2ccc3ncc4c(c3c2)n(-c2ccc(N3CCNCC3)c(C(F)(F)F)c2)c(=O)n4C)cn1 : call = ?
Given back: true

Asked: Entry O=C1CNCCN1 : call = ?
Given back: false

Asked: Entry COc1cc(-c2nn(-c3ccc(NC(=O)NCCNS(=O)(=O)c4ccc(F)cc4)cc3)cc2-c2ccncc2)ccc1Cl : call = ?
Given back: true

Asked: Entry CC(=O)c1cc(Cl)ccc1O : call = ?
Given back: false

Asked: Entry COc1ccc2c(c1)c(-c1nc(-c3c[nH]c4ncccc34)cs1)cn2CCNC(=O)OC(C)(C)C : call = ?
Given back: false

---

System: NCI-H226 lung
Test: NCI-60 one-dose screen, 48 h (100 = growth as untreated, 0 = no growth, -100 = all killed)
Conditions: 10 µM unless noted
This is part of a sample that, as a whole, favours compounds with a hit. Of some 83,000 tested, about 20% had one in any assay.
# growth listing for each entry below
Number in %, nothing else.

// worked examples, growth included
O=S(=O)(c1ccc(Cl)cc1)C(Cl)(Cl)Cl = 60.8
N#CC1=C(N)Oc2cc3c(cc2C1c1cccs1)OCO3 (stereo not drawn) = 47.6
COc1cc(N(CCCl)CCCl)ccc1C=Nc1ccccc1C(=O)O = 94.7
CC1COC(=O)C1 (stereo not drawn) = 96.7
ClCCN(CCCl)c1nc(Cl)c(C2CC(c3ccccc3)=NN2c2ccccc2)s1 (stereo not drawn) = 83.3
CCC(C)[C@H]1O[C@]2(C=C[C@@H]1C)C[C@@H]1C[C@@H](C/C=C(\C)[C@@H](OC3C[C@H](OC)C(O[C@H]4C[C@H](OC)[C@@H](O)[C@H](C)O4)[C@H](C)O3)[C@@H](C)/C=C/C=C3\CO[C@@H]4[C@H](O)C(C)=C[C@@H](C(=O)O1)[C@]34O)O2 (stereo partly drawn) = -15.6
Nc1ncnc2c1c(C(=O)NO)cn2C1OC(CO)C(O)C1O (stereo not drawn) = 13.6
[Cl][Hg][n]1cnc2c(Cl)c(Cl)c(Cl)cc21 = 119
C/C(=C\c1cc(C(F)(F)F)n(-c2ccc(N)cc2)n1)[C@@H]1C[C@@H]2O[C@]2(C)CCC[C@H](C)[C@H](O)[C@@H](C)C(=O)C(C)(C)[C@@H](O)CC(=O)O1 = 38.9
CC1(C)CC2(CC(C)(C)c3cc(O)c(O)cc32)c2cc(O)c(O)cc21 = 85.7

Asked: Form field: reported growth of COc1cc(C2(C#N)CCN(C)CC2)cc(OC)c1OC
Given back: 110

Asked: Form field: reported growth of CC(C)(O)/C=C/C(=O)[C@](C)(O)[C@H]1[C@H](O)C[C@@]2(C)[C@@H]3CC=C4[C@@H](C=C(O)C(=O)C4(C)C)[C@]3(C)C(=O)C[C@]12C
Given back: -33.9

Asked: Form field: reported growth of S=P(NC1CCCCC1)(N1CC1)N1CC1
Given back: 113

Asked: Form field: reported growth of CNc1ccc(C(=O)CC(O)CCC(C)C2OC(=O)CC(O)CC(=O)CC(O)CC(O)CC(O)CC(O)CC3(O)CC(O)C(C(=O)OC)C(CC(O[C@@H]4O[C@H](C)[C@@H](O)[C@H](N)[C@@H]4O)/C=C/C=C/C=C/C=C/C=C/C=C/C=C/C2C)O3)cc1 (stereo partly drawn)
Given back: -37.7

Asked: Form field: reported growth of CNC(=O)Oc1ccccc1
Given back: 102

Asked: Form field: reported growth of CCCC(C)(C)c1ccc2c(c1)OC(C)(C)[C@@H]1CC=C(C)C[C@@H]21
Given back: 98.3

Asked: Form field: reported growth of CC(C)(C)NCC(O)c1ccccc1Cl (stereo not drawn)
Given back: 45

Asked: Form field: reported growth of C=CCC1(CC)C(=O)NC(=S)NC1=O
Given back: 104

Data provenance is PubChem BioAssay (NCI).
